Where do these numbers come from? They come from patent US8101754B2.

biological target: human dopamine D2L receptors (long isoform) (Homo sapiens, UniProt P14416); construct: expressed in transfected cells; membranes); assay: Dopamine D2L receptor binding ([125I] iodospiperone), basis of selectivity Ki(D2)/Ki(D3); details: Table 5; D2L vs D3
Sequence (P14416 whole entry, canonical isoform): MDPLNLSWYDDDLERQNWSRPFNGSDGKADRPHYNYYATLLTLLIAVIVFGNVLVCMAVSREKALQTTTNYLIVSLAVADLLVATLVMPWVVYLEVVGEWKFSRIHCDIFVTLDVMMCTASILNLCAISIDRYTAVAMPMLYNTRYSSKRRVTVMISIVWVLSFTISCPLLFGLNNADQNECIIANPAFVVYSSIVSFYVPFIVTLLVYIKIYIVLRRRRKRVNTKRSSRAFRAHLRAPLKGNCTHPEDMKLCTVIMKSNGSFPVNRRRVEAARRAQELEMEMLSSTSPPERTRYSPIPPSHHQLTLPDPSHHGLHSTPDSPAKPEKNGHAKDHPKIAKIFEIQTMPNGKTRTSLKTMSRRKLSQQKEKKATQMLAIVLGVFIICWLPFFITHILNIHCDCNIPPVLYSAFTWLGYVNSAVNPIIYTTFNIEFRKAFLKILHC
reported-property: Selectivity [Ki(D2)/Ki(D3)]

molecule: Cn1cnnc1[S+]([O-])CCCN1CCN(c2cc(C3CCC3)nc(C(C)(C)C)n2)CC1 (centres unmarked)
system: human dopamine D2L receptors (long isoform) (Homo sapiens, UniProt P14416)
reported-property: Selectivity [Ki(D2)/Ki(D3)]
observed: 44
//
molecule: CCCc1cc(N2CCN(CCC[S+]([O-])c3nnc(CC)n3C)CC2)nc(C(C)(C)C)n1.Cl (centres unmarked)
system: human dopamine D2L receptors (long isoform) (Homo sapiens, UniProt P14416)
reported-property: Selectivity [Ki(D2)/Ki(D3)]
observed: 37
//
molecule: Cn1cnnc1S(=O)(=O)CCCN1CCN(c2cc(C3CCC3)nc(C(C)(C)C)n2)CC1
system: human dopamine D2L receptors (long isoform) (Homo sapiens, UniProt P14416)
reported-property: Selectivity [Ki(D2)/Ki(D3)]
observed: 14
//
molecule: Cc1nnc([S+]([O-])CCCN2CCN(c3cc(C(C)(C)C)nc(C(C)(C)C)n3)CC2)n1C (racemic)
system: human dopamine D2L receptors (long isoform) (Homo sapiens, UniProt P14416)
reported-property: Selectivity [Ki(D2)/Ki(D3)]
observed: 26
//
molecule: CCCc1cc(N2CCN(CCCS(=O)(=O)c3nnc(C)n3C)CC2)nc(C(C)(C)C)n1
system: human dopamine D2L receptors (long isoform) (Homo sapiens, UniProt P14416)
reported-property: Selectivity [Ki(D2)/Ki(D3)]
observed: 45

(A) CCCc1cc(N2CCN(CCC[S+]([O-])c3nnc(C)n3C)CC2)nc(C(C)(C)C)n1.Cl (centres unmarked)
(B) Cn1c(-c2ccc(F)cc2)nnc1[S+]([O-])CCCN1CCN(c2cc(C(F)(F)F)nc(C(C)(C)C)n2)CC1 (centres unmarked)
(C) CCCc1cc(N2CCN(CCCS(=O)(=O)c3nnc(CC)n3C)CC2)nc(C(C)(C)C)n1
Prompt: Let's sort these by Selectivity [Ki(D2)/Ki(D3)], smallest first. Go ahead? Form entry: ranked labels (order as requested).
Response: A, C, B
(A: 33, C: 55, B: 100)
